Items are presented alongside their recorded LOLPE weed control rating.
System: Lolium perenne
Test: Pre-emergence test, weed control
Type: in vivo
Conditions: 0.015 kg/ha, 3 weeks after treatment, rating 0-100 (100=death), Table 1

INSERT INTO results (smiles, assay_endpoint, test_result) VALUES
  ('Cc1cnc(-c2ccc(C(F)(F)F)cc2)nc1Oc1cccc(C(F)(F)F)c1', 'LOLPE weed control rating', 80),
  ('CCc1cc(Oc2cccc(C(F)(F)F)c2)nc(-c2ccc(C(F)(F)F)cc2)n1', 'LOLPE weed control rating', 90),
  ('Cc1nc(-c2ccc(C(F)(F)F)cc2)nc(Oc2cccc(C(F)(F)F)c2)c1C', 'LOLPE weed control rating', 5);

--- query ---
stdin: State its LOLPE weed control rating on Lolium perenne: FC(F)(F)c1ccc(-c2nccc(Oc3cccc(C(F)(F)F)c3)n2)cc1
stdout: 70

====

Tested on: Triticum aestivum variety “Kanzler”
Assay: Post-emergence test, selectivity
Assay type: in vivo
Settings: 0.06 kg/ha, 2–4 weeks after treatment, rating 0-100 (100=death), Table 6
assay endpoint: TRZAWK rating (Selectivity)
No unit in the answer, only the number.

The following molecules have reported results that may help.
INSERT INTO measurements (molecule, test_result) VALUES
  ('Cc1cnc(-c2ccc(C(F)(F)F)cc2)nc1Oc1cccc(C(F)(F)F)c1 [REF-1]', 25),
  ('CCc1cc(Oc2cccc(C(F)(F)F)c2)nc(-c2ccc(C(F)(F)F)cc2)n1 [REF-3]', 15),
  ('Cc1nc(-c2ccc(C(F)(F)F)cc2)nc(Oc2cccc(C(F)(F)F)c2)c1C [REF-2]', 5);

Next up:
stdin: Recall the recorded TRZAWK rating (Selectivity) for FC(F)(F)c1ccc(-c2nccc(Oc3cccc(C(F)(F)F)c3)n2)cc1 [TTP] with Triticum aestivum variety “Kanzler” and state it.
stdout: 8

====

Tested on: Triticum aestivum variety “Kanzler”
Assay: Post-emergence test, selectivity
Format: in vivo
Conditions: 0.24 kg/ha, 2–4 weeks after treatment, rating 0-100 (100=death), Table 6
Catalogue of TRZAWK rating (Selectivity) readings, one per entry.
Reply briefly: the number, and no unit.

// below: answered molecules
INSERT INTO results (smiles, test_result) VALUES
  ('CCc1cc(Oc2cccc(C(F)(F)F)c2)nc(-c2ccc(C(F)(F)F)cc2)n1', 35),
  ('Cc1nc(-c2ccc(C(F)(F)F)cc2)nc(Oc2cccc(C(F)(F)F)c2)c1C', 10),
  ('Cc1cnc(-c2ccc(C(F)(F)F)cc2)nc1Oc1cccc(C(F)(F)F)c1', 40);

stdin: Reported TRZAWK rating (Selectivity) for FC(F)(F)c1ccc(-c2nccc(Oc3cccc(C(F)(F)F)c3)n2)cc1 : what is it?
stdout: 15

====

Tested on: Lamium purpureum
Assay: Post-emergence test, weed control
Type: in vivo
Conditions: 0.060 kg/ha, 2–4 weeks after treatment, rating 0-100 (100=death), Table 5
Method: These acetone solutions are diluted with water and the resulting formulations applied at dosage levels equivalent of about 0.030 to 0.240 kg per hectare of test compound per pot. After spraying the plants are placed an greenhouse benches and are cared for in the usual manner, commensurate with conventional greenhouse practices. From 2 to 4 weeks after treatment, the seedling plants are examined and rated according to the rating system provided above. […]
assay endpoint: LAMPU weed control rating
I'd appreciate a reply containing only the number, no unit.

INSERT INTO results (smiles, test_result) VALUES
  ('Cc1cnc(-c2ccc(C(F)(F)F)cc2)nc1Oc1cccc(C(F)(F)F)c1', 93);

stdin: For the compound FC(F)(F)c1ccc(-c2nccc(Oc3cccc(C(F)(F)F)c3)n2)cc1 , what LAMPU weed control rating is on record?
stdout: 75

stdin: Please give the result for Cc1nc(-c2ccc(C(F)(F)F)cc2)nc(Oc2cccc(C(F)(F)F)c2)c1C too.
stdout: 90

stdin: Also CCc1cc(Oc2cccc(C(F)(F)F)c2)nc(-c2ccc(C(F)(F)F)cc2)n1 , if possible.
stdout: 93

====

System: Hordeum vulgare variety “Mammut”
Assay: Pre-emergence test, selectivity
Format: in vivo
Settings: 0.120 kg/ha, 3 weeks after treatment, rating 0-100 (100=death), Table 2
Listing of recorded HORVWM rating (Selectivity) by entry.

INSERT INTO results (smiles, tested_on, assay_endpoint, test_result) VALUES
  ('Cc1nc(-c2ccc(C(F)(F)F)cc2)nc(Oc2cccc(C(F)(F)F)c2)c1C', 'Hordeum vulgare variety “Mammut”', 'HORVWM rating (Selectivity)', 18),
  ('Cc1cnc(-c2ccc(C(F)(F)F)cc2)nc1Oc1cccc(C(F)(F)F)c1', 'Hordeum vulgare variety “Mammut”', 'HORVWM rating (Selectivity)', 60),
  ('CCc1cc(Oc2cccc(C(F)(F)F)c2)nc(-c2ccc(C(F)(F)F)cc2)n1', 'Hordeum vulgare variety “Mammut”', 'HORVWM rating (Selectivity)', 55);

Please examine the following record next.
stdin: Quick check: HORVWM rating (Selectivity) of FC(F)(F)c1ccc(-c2nccc(Oc3cccc(C(F)(F)F)c3)n2)cc1 ?
stdout: 40

====

TRZAWM rating (Selectivity) listing for selected compounds.
Test system: Triticum aestivum variety “Monopol”
Experiment: Pre-emergence test, selectivity
Assay type: in vivo
Conditions: 0.030 kg/ha, 3 weeks after treatment, rating 0-100 (100=death), Table 4

# example entries with known answers
INSERT INTO assay_data (compound, assay_endpoint, test_result) VALUES
  ('Cc1cnc(-c2ccc(C(F)(F)F)cc2)nc1Oc1ccnc(Cl)c1 [REF-4]', 'TRZAWM rating (Selectivity)', 15),
  ('Cc1cc(Oc2ccnc(Cl)c2)nc(-c2ccc(C(F)(F)F)cc2)n1 [REF-6]', 'TRZAWM rating (Selectivity)', 1),
  ('COc1cnc(-c2ccc(C(F)(F)F)cc2)nc1Oc1ccnc(Cl)c1 [REF-8]', 'TRZAWM rating (Selectivity)', 1);

stdin: Reported TRZAWM rating (Selectivity) for CSc1cc(Oc2ccnc(Cl)c2)nc(-c2ccc(C(F)(F)F)cc2)n1 [REF-7] : what is it?
stdout: 2

====

# key: entry, value: HORVWM rating (Selectivity)
System: Hordeum vulgare variety “Mammut”
Assay: Pre-emergence test, selectivity
Type: in vivo
Details: 0.060 kg/ha, 3 weeks after treatment, rating 0-100 (100=death), Table 2

INSERT INTO results (smiles, test_result) VALUES
  ('CCc1cc(Oc2cccc(C(F)(F)F)c2)nc(-c2ccc(C(F)(F)F)cc2)n1', 40),
  ('Cc1nc(-c2ccc(C(F)(F)F)cc2)nc(Oc2cccc(C(F)(F)F)c2)c1C', 5),
  ('Cc1cnc(-c2ccc(C(F)(F)F)cc2)nc1Oc1cccc(C(F)(F)F)c1', 45);

stdin: Provide the documented HORVWM rating (Selectivity) with Hordeum vulgare variety “Mammut” as the system for FC(F)(F)c1ccc(-c2nccc(Oc3cccc(C(F)(F)F)c3)n2)cc1
stdout: 30

====

Measured TRZAWM rating (Selectivity), listed per entry for reference.
Tested on: Triticum aestivum variety “Monopol”
Assay: Pre-emergence test, selectivity
Type: in vivo
Conditions: 0.240 kg/ha, 3 weeks after treatment, rating 0-100 (100=death), Table 4
Hey, just send me the number, nothing else.

Reference set (4 entries):
INSERT INTO assay_data (smiles, tested_on, test_result) VALUES
  ('COc1cnc(-c2ccc(C(F)(F)F)cc2)nc1Oc1ccnc(Cl)c1', 'Triticum aestivum variety “Monopol”', 18),
  ('Cc1cnc(-c2ccc(C(F)(F)F)cc2)nc1Oc1ccnc(Cl)c1', 'Triticum aestivum variety “Monopol”', 35),
  ('CSc1cc(Oc2ccnc(Cl)c2)nc(-c2ccc(C(F)(F)F)cc2)n1', 'Triticum aestivum variety “Monopol”', 10),
  ('FC(F)(F)c1ccc(-c2nccc(Oc3ccnc(Cl)c3)n2)cc1', 'Triticum aestivum variety “Monopol”', 5);

stdin: Fill in the blank: the reported TRZAWM rating (Selectivity) of Cc1nc(-c2ccc(C(F)(F)F)cc2)nc(Oc2ccnc(Cl)c2)c1C is ____.
stdout: 8

stdin: Try this compound next: Cc1cc(Oc2ccnc(Cl)c2)nc(-c2ccc(C(F)(F)F)cc2)n1
stdout: 25

====

Tested on: HORVW
Experiment: Pre-emergence test, selectivity
Assay type: in vivo
Settings: 0.030 kg/ha, 3 weeks after treatment, rating 0-100 (100=death), Table 2
Form field: HORVW rating (Selectivity) (one value per entry).

Reference set (3 entries):
INSERT INTO measurements (smiles, assay_endpoint, test_result) VALUES
  ('Cc1nc(-c2ccc(C(F)(F)F)cc2)nc(Oc2cccc(C(F)(F)F)c2)c1C', 'HORVW rating (Selectivity)', 10),
  ('FC(F)(F)c1ccc(-c2nccc(Oc3cccc(C(F)(F)F)c3)n2)cc1', 'HORVW rating (Selectivity)', 25),
  ('Cc1cnc(-c2ccc(C(F)(F)F)cc2)nc1Oc1cccc(C(F)(F)F)c1', 'HORVW rating (Selectivity)', 45);

Now turn to the next molecule.
stdin: // query HORVW rating (Selectivity) value for entry CCc1cc(Oc2cccc(C(F)(F)F)c2)nc(-c2ccc(C(F)(F)F)cc2)n1
stdout: 45
